Kindly supply the reported IC50 values for the records listed here.
Molecular target: CYP2A6 (Homo sapiens)
Sequence (P11509 whole entry): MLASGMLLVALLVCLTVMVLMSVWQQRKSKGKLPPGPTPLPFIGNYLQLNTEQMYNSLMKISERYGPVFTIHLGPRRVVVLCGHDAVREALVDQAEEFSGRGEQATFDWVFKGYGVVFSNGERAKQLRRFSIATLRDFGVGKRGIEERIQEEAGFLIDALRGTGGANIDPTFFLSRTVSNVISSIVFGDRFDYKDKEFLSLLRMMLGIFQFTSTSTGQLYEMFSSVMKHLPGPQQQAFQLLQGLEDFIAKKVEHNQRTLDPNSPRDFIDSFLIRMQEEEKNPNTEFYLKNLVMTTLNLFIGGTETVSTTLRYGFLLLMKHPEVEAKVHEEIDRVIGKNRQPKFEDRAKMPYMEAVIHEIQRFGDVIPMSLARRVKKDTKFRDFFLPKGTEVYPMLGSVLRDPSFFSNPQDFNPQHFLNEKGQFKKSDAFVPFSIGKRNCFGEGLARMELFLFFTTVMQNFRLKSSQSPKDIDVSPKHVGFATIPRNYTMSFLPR
Conditions: both, human, microsomes, pH 7.4
Where a name gives a salt, the structure may show the parent alone.
Provide only the numeric value, understood in nM.

Return reported IC50; argument: NCc1ccc(-c2cnccc2-c2ccncc2)s1 [Compound AJ, Trihydrochloride]
330

Request the reported IC50 associated with NCc1ccc(-c2cnccc2-c2cccnc2)o1 [Compound AG, Trihydrochloride]
380

What measured IC50 goes with NCC#Cc1cnccc1-c1ccco1 [Compound M, Dihydrochloride] ?
560

Need IC50 of NCC#Cc1cnccc1-c1cncnc1 [Compound Q, Trihydrochloride] , thanks.
2700

* * *

Biological target: UGT2B10 (Homo sapiens, UniProt P36537)
Sequence (P36537 24-528): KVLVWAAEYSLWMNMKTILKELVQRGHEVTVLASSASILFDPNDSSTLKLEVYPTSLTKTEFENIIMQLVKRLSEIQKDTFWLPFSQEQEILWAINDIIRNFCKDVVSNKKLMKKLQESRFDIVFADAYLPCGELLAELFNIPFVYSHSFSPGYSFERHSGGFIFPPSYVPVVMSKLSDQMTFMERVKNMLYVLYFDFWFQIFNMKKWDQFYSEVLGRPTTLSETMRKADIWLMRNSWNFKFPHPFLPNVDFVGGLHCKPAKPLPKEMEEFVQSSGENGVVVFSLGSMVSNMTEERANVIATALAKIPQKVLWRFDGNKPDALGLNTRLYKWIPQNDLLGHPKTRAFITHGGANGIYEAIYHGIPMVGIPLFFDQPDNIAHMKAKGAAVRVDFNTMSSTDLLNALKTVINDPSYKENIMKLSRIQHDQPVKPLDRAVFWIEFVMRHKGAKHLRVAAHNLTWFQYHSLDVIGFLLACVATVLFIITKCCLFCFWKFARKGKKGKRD
Assay: biochemical
Details: IC50 against UGT2B10
METRIC NAME: IC50

// IC50 lookup, key: Cc1cncc(C#CCN)c1
> 1000 µM

State the recorded IC50 for this entry: CCc1ccncc1C#CCN
> 1000 µM

Recorded IC50 of Cc1ccncc1C#CCN , please.
< 60 µM

Which IC50 is listed for COc1ccncc1C#CCN ?
< 60 µM
